Test: NCI Yeast Anticancer Drug Screen. Data for the rad50 strain (AID 155);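 note: 0% = growth of vehicle-only cultures of the same strain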
Settings: S. cerevisiae rad50 strain growth inhibition; at 50.0 µM
About 79,000 compounds went through this panel and 15% of them were active in at least one assay; those are over-represented in the sample as a whole. Active and inactive are the calls of the source. Cut-off read from the data, not from the text of the source: active = growth inhibition above about 70%; inactive = the rest.
Possible outcomes: active, inactive

MOLECULE	LABEL VALUE
CC(O)C[N+](=O)[O-] (stereo not given)	inactive
NCCc1cc2c3c(c1)CCCN3CCC2	active
COc1cc2c(cc1OC)C1CC(OC(=O)c3ccccc3)(c3nccc4cc(OC)c(OC)cc34)CCN1CC2 (stereo not given)	inactive
CCOC(=O)C(CCc1ccc(N(CCCl)CCCl)cc1)(NC(C)=O)C(=O)OCC	inactive
CC[n+]1c(C)n(-c2ccccc2)c(=O)c2ccccc21	inactive
N.O=S(=O)(O)O.[Al]	inactive
CC(C)N([P-]C(=O)[P-]N(C(C)C)C(C)C)C(C)C.[C-]#[O+].[C-]#[O+].[C-]#[O+].[C-]#[O+].[C-]#[O+].[C-]#[O+].[Fe].[Fe] (stereo not given)	inactive
CC1(C)C2CC[C@@]1(C)C(=O)C2Br (stereo not given in full)	inactive
COP(=O)(NC(C)=O)OC	inactive
CC(=O)Nc1ccccc1[As](OC(C)=O)c1ccccc1 (stereo not given)	active
CC1CN1c1nc(N2CC2C)nc(N2CC2C)n1 (stereo not given)	inactive
NC(=O)c1ccc(NN=O)nc1	inactive
CC(=O)N1CCCN(C)/C1=N/[N+](=O)[O-]	inactive
CCCCC(CC)C(=O)NC(N)=O (stereo not given)	inactive
O=C(Cc1ccccc1)OCCBr	inactive
CC(C)OP(=O)(CP(=O)(OC(C)C)OC(C)C)OC(C)C.[CH3][Sn]([Br])([Br])[Br]	inactive
CCNC(=O)OOC(C)(C)C	active
COc1cc(C2c3cc4c(cc3OC(N3CCOCC3)C2C)OCO4)cc(OC)c1OC (stereo not given)	inactive
Cc1ccc(NC2=NCCS2)cc1Cl	inactive
CCOP(=O)(OCC)Oc1cc(C)c(Cl)c(C)c1	inactive
COC(=O)c1cccc(S(=O)(=O)F)c1	inactive
O=[n+]1c2ccccc2n([O-])c2ccccc21.[Cl][Cu][Cl]	active
CC1(C)N=C(N)N=C(N)N1c1ccc(OCCCCNC(=O)Nc2ccc(S(=O)(=O)F)cc2)c(Cl)c1	active
N#CC(c1ccccc1)c1ccccc1	inactive
O=[P+](O)O[P+](=O)O.O=[P+](O)O[P+](=O)O.O=[P+](O)O[P+](=O)O.O=[P+](O)O[P+](=O)O.[Cl][Pt].[Cl][Pt]	inactive

###

Test: NCI Yeast Anticancer Drug Screen. Data for the sgs1 mgt1 strain (AID 161);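 note: 0% = growth of cultures given vehicle only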
Conditions: S. cerevisiae sgs1 mgt1 strain, at 50.0 µM, active compounds read high
This is part of a sample that, as a whole, favours compounds with a hit. Of some 79,000 tested, about 15% had one in any assay.
ASSAY METRIC: growth inhibition (%)

MOLECULE	UNIT OF MEASUREMENT	VALUE REPORTED
CCCCCCC(=O)O[C@H]1CC[C@H]2[C@@H]3CCC4C/C(=N/NC(=O)c5cccc6c(=O)c7ccccc7[nH]c56)C=C(C)[C@]4(C)[C@H]3CC[C@]12C (stereo not given in full)	%	16.6
CC1CN1c1nc(N2CC2C)nc(N2CC2C)n1 (stereo not given)	%	-2.65
CC(=O)c1ccccc1O.[Cr]	%	19.3
NC(CCCc1ccc(N(CCCl)CCCl)cc1)C(=O)O (stereo not given)	%	8.75
CC1(Br)Cc2ccccc2C1=O (stereo not given)	%	42.3
N#C[S-].[La+3].c1ccc(-c2ccccn2)nc1.c1ccc(-c2ccccn2)nc1.c1ccc(-c2ccccn2)nc1	%	93
CN1CC=C(OP(=O)(NCc2ccccc2)N(CCCl)CCCl)CC1 (stereo not given)	%	0.9
CC(C)C(=O)OCC1CCCN2CCCCC12 (stereo not given)	%	11.9
Cc1cc(Cc2cc(C)c(NC(=O)C(=O)C3C(=O)NC(=S)NC3=O)c(C(C)C)c2)cc(C(C)C)c1NC(=O)C(=O)C1C(=O)NC(=S)NC1=O	%	-18.9
CC1(Cl)CC2C(CC1Sc1nnnn1-c1ccccc1)C2(C)C (stereo not given)	%	-7.2

###

Form field: growth inhibition (one value per entry).
Assay: NCI Yeast Anticancer Drug Screen. Data for the mec2-1 strain (AID 157)
Settings: S. cerevisiae mec2-1 strain, at 5.0 µM (retest, dose inferred, filed as 0.5), active compounds read high
The panel holds about 79,000 compounds, 15% with a hit somewhere; the sample as a whole holds those more often.

COMPOUND	UNIT OF MEASUREMENT	growth inhibition
Cc1cc(N(CCCl)CCCl)ccc1C1N(Cc2ccc(Cl)cc2Cl)CCCN1Cc1ccc(Cl)cc1Cl	%	-4
S=C1NCCN1	%	-4
CC(=O)c1ccc(-[n+]2c(C)cc(-c3ccccc3)cc2C)cc1	%	-1
O=C1CCC(=O)N1SC(Cl)(Cl)Cl	%	20
[Cl][Hg][c]1ccc2ccccc2c1	%	100
C[N+](C)(C)CC1CCCC1=O (stereo unspecified)	%	16
S=C=NCCc1ccccc1	%	-13
BrP(NC1CCCCCC1)(c1ccccc1)(c1ccccc1)c1ccccc1	%	39
CC(Cl)CN1COc2c3c(c4ccccc4c2C1)CN(CC(C)Cl)CO3 (stereo unspecified)	%	2
C[N+](C)(C)CC1Cc2ccccc2C1=O (stereo unspecified)	%	20
Sc1nc2ccccc2s1.Sc1nc2ccccc2s1.Sc1nc2ccccc2s1.Sc1nc2ccccc2s1.[Cl][Rh][Cl]	%	12
O=[N+]([O-])c1ccc(N2CCOCC2)c2c1no[n+]2[O-]	%	99
CCCCCCCCc1ccc(OCCN(CCCl)CCCl)cc1	%	-23
O=P1(N2CCOCC2)OC(c2ccccc2)=CCN1c1ccccc1 (stereo unspecified)	%	-1
COc1cc2c(c3c[n+](C)c4c5cc6c(cc5ccc4c13)OCO6)OCO2	%	99
O=C(CBr)Nc1ccc(Cl)cc1	%	99
CC1=C2C(=CC(C)(C)[C@@H]2O)C(=O)[C@](C)(O)C12CC2	%	12
COc1cc(C(=O)[O][Hg][CH2]C2CC(O)CC([CH2][Hg][O]C(=O)c3cc(OC)c(OC)c(OC)c3)O2)cc(OC)c1OC (stereo unspecified)	%	98
CN=C(N)N/N=C(\C)c1ccc2sc3ccc(/C(C)=N/NC(N)=NC)cc3c2c1	%	-4
O=[N+]([O-])c1ccc(CS(=O)(=O)C(Cl)Cl)o1	%	-1
CCC[CH2][Sn]1([CH2]CCC)[O]c2ccccc2[O]1	%	23
O=[N+]([O-])/C=C\c1ccccc1	%	17
CCCCCCC(=O)[O][Hg][c]1ccccc1	%	100
Oc1c(Cl)cc(Cl)cc1Cl.[Cu+2]	%	-28
Oc1c(Cl)c(Cl)cc(Cl)c1Cc1c(Cl)cc(Cl)c(Cl)c1[O][Pb]([c]1ccccc1)([c]1ccccc1)[c]1ccccc1	%	99
O=P(c1cccc(C(F)(F)F)c1)(c1cccc(C(F)(F)F)c1)c1cccc(C(F)(F)F)c1.O=P(c1cccc(C(F)(F)F)c1)(c1cccc(C(F)(F)F)c1)c1cccc(C(F)(F)F)c1.[Cl][Sn]([Cl])([Cl])[Cl]	%	3
COC([CH2][Hg])CN1C(=O)c2cc(C)c(C)cc2C1=O (stereo unspecified)	%	100
O=C1C(=O)C(Br)(Br)C(Br)=C1Br	%	1
CCC[CH2][Sn]1([CH2]CCC)[O]CC(C)[O]1 (stereo unspecified)	%	30
Nc1nc(N)c(-c2ccc(Cl)c(Cl)c2)c(COc2ccc(CNC(=O)Nc3cccc(S(=O)(=O)F)c3)cc2Cl)n1	%	-5
ClCCN1CCOCC1	%	94
O=[N+]([O-])/C=C\C(Cl)(Cl)Cl	%	72
CC(=O)NC1C(O[C@H]2CC[C@@]3(C)C(CC[C@]4(C)C3CC=C3C5CC(C)(C)CC[C@]5(C(=O)O)CCC34C)C2(C)C)OC(CO)C(O)C1O (stereo partly specified)	%	69
CN1CCN(c2ccc3nc(-c4ccc5nc(-c6ccc(N(C)CCCl)cc6)[nH]c5c4)[nH]c3c2)CC1	%	-10
O=C(Oc1ccc(S(=O)(=O)F)cc1F)c1ccccc1Cl	%	5
COC(=O)[CH2][Sn]([CH2]C(=O)OC)([CH]1CCCCC1)[CH]1CCCCC1	%	-3
COC1CC(C)C(OC)C2=CC(=O)C=C(NC(=O)/C(C)=C/C=C\C(C)C(OC(N)=O)/C(C)=C\C(C)C1OC)C2=O (stereo unspecified)	%	97
COc1cc(C2c3cc4c(cc3OC(N3CCOCC3)C2C)OCO4)cc(OC)c1OC (stereo unspecified)	%	21
O=P(CCP(=O)(c1ccccc1)c1ccccc1)(c1ccccc1)c1ccccc1.[Cl][Sn]([Cl])([c]1ccccc1)[c]1ccccc1	%	45
[C-]#[O+].[C-]#[O+].[Mo].c1ccc([PH+](CC[PH+](c2ccccc2)c2ccccc2)c2ccccc2)cc1.c1ccc([PH+](CC[PH+](c2ccccc2)c2ccccc2)c2ccccc2)cc1	%	2
c1ccc(C(c2ccccc2)c2cccnc2)cc1	%	59

Source: PubChem BioAssay (NCI)
